test system: Mus musculus; assay: Analgesic activity in Swiss mouse assessed as increase in reaction time at 20 mg/kg, po after 60 mins by Eddy's hot plate technique; type: functional
I'd be grateful if you could share measured Activity for these entries.
One number for each entry, in %.

// below: answered compounds
COc1ccc(Cl)c(-c2nnc3n2NC(c2ccco2)S3)c1 (stereo unspecified)
12.55
COc1ccc(Cl)c(-c2nnc3sc(-c4ccnc(Cl)c4)nn23)c1
17.45
Cc1occc1-c1nnc2sc(-c3ccnc4ccccc34)nn12
10.24
COc1ccc2[nH]c(C)c(Cc3nn4c(Cc5ccc(OC)c(OC)c5)nnc4s3)c2c1
27.82
COc1ccc(Cl)c(-c2nnc3sc(-c4cc(C)nc5ccccc45)nn23)c1
12.65

Report Activity for each item below.
1. COc1ccc(Cl)c(-c2nnc3n2NC(c2ccc([N+](=O)[O-])o2)S3)c1 (stereo unspecified)
2. COc1ccc(Cc2nnc3n2NC(c2cccn2C)S3)cc1OC (stereo unspecified)
3. Cc1occc1-c1nnc2sc(Cc3c[nH]c4ccccc34)nn12

Reply text:
[14.1, 10.24, 22.22]

* * *

system: Escherichia coli; test: Antibacterial activity against Escherichia coli at 10 ug/ml by agar plate diffusion technique; type: functional; conditions: read-out: IZ
Give zone of inhibition at 10 µg/mL for every item shown.
Numbers only, in mm.

Worked cases, answers included:
COc1ccc(Cl)c(-c2nnc3n2NC(c2cccn2C)S3)c1 (stereo unspecified)
3.82
COc1ccc(Cc2nnc3n2NC(c2ccco2)S3)cc1OC (stereo unspecified)
4.29
COc1ccc(Cl)c(-c2nnc3sc(Cc4c[nH]c5ccccc45)nn23)c1
4.78
COc1ccc(Cc2nnc3sc(-c4cc(-c5ccccc5)nc5ccccc45)nn23)cc1OC
6.08
Cc1occc1-c1nnc2sc(-c3cc(O)nc(O)c3)nn12
5.38
COc1ccc(Cc2nnc3sc(-c4cc(O)nc(O)c4)nn23)cc1OC
4.26

Hey, quick one: what's zone of inhibition at 10 µg/mL for each of these?
1. COc1ccc(Cc2nnc3n2NC(c2ccc[nH]2)S3)cc1OC (stereo unspecified)
2. COc1ccc2[nH]c(C)c(Cc3nn4c(Cc5ccc(OC)c(OC)c5)nnc4s3)c2c1
3. COc1ccc(Cl)c(-c2nnc3n2NC(c2ccco2)S3)c1 (stereo unspecified)

Reply text:
4.48
4.48
4.12

Value sought for every listed compound: zone of inhibition at 10 µg/mL.
1. Cc1cc(-c2nn3c(-c4ccoc4C)nnc3s2)c2ccccc2n1
2. COc1ccc(Cc2nnc3n2NC(c2ccc([N+](=O)[O-])o2)S3)cc1OC (stereo unspecified)

Reply text:
1. 6.28
2. 5.16

* * *

test system: Escherichia coli; assay: Antibacterial activity against Escherichia coli at 30 ug/ml by agar plate diffusion technique; format: functional; settings: read-out: IZ
MEASURED_ATTRIBUTE: zone of inhibition at 30 µg/mL (mm)
Numbers only, in mm.

State the recorded zone of inhibition at 30 µg/mL for every item in the following list.
1. Cc1occc1-c1nnc2n1NC(c1cccn1C)S2 (stereo unspecified)
2. COc1ccc2[nH]cc(Cc3nn4c(Cc5ccc(OC)c(OC)c5)nnc4s3)c2c1
3. COc1ccc(Cl)c(-c2nnc3n2NC(c2ccc([N+](=O)[O-])o2)S3)c1 (stereo unspecified)
4. Cc1occc1-c1nnc2sc(-c3cc(O)nc(O)c3)nn12

Reply text:
12.1
12.9
15.1
14.1
